Recorded growth, one value per entry.
Test system: CAKI-1 renal
Experiment: NCI-60 one-dose screen, 48 h (100 = growth as untreated, 0 = no growth, -100 = all killed)
Details: 10 µM unless noted
Method: Growth inhibition of the CAKI-1 human tumor cell line is measured as a screen for anti-cancer activity. Cells are grown in 96 well plates and exposed to the test compound for 48 hours. Compounds are tested at a single concentration, which is 10^-5 M for most compounds. The reported endpoint is percent growth (GI% or GIPRCNT), where numbers from 0 - 100% represent growth inhibition, and numbers from -100% - 0 represent cell death. For example, a value of 40 represents 60% growth inhibition. […]
Compounds without any hit were thinned out: in the full panel of roughly 83,000, 20% have a hit. The source made the active and inactive calls. Rule for the calls: active = growth percent below 10; inactive = the rest.

Take a look at these entries with their results.
[[record]]
compound = "Cc1ccc2nc(NC(=O)CSc3nc(Cl)c(C#N)c(-c4ccccc4)n3)sc2c1"
result = "94.8% (inactive)"

[[record]]
compound = "COc1ccc(C(=O)C[C@]2(O)C(=O)Nc3c(Cl)ccc(Cl)c32)cc1"
result = "32.3% (inactive)"

[[record]]
compound = "N[C@@H](Cc1ccccc1)[C@@H](O)C(=O)NCc1ccc(F)cc1"
result = "91.3% (inactive)"


Identify measured growth corresponding to CC1=NN(c2ccc(S(=O)(=O)O)cc2)C(=O)C1N=Nc1ccc(-c2ccc(N=Nc3ccc(OS(=O)(=O)c4ccc(C)cc4)cc3)c(S(=O)(=O)O)c2)cc1 (centres undefined) 100% (inactive)

----------
Test system: OVCAR-8 ovarian
Experiment: NCI-60 one-dose screen, 48 h (100 = growth as untreated, 0 = no growth, -100 = all killed)
Conditions: 10 µM unless noted
The panel holds about 83,000 compounds, 20% with a hit somewhere; the sample as a whole holds those more often.
Rule: growth below 90% gives y. Equal to or above 90% gives n.

Would you please look over these solved cases?
[[record]]
compound = "NCCCNc1nc2ccc(Cl)cc2c2c(=O)c3cc(F)ccc3sc12"
assigned_label = "y"

[[record]]
compound = "CCCCN(C)N=Nc1ccc(C(N)=O)cc1"
assigned_label = "n"

[[record]]
compound = "COc1cccc(OC)c1C(=O)N[C@@H]1C(=O)N2[C@@H]1SC(C)(C)[C@@H]2C(=O)O"
assigned_label = "n"

[[record]]
compound = "N/C(=N\\c1nc2ccccc2s1)NC(=O)Nc1cccc2ccccc12"
assigned_label = "y"

[[record]]
compound = "C#C[C@]1(O)CC[C@H]2[C@@H]3CC=C4c5sc(Nc6ccccc6)nc5CC[C@]4(C)[C@H]3CC[C@@]21C"
assigned_label = "y"

[[record]]
compound = "c1cc(-c2nnc(SSc3ncnc4nc[nH]c34)o2)ccn1"
assigned_label = "y"

[[record]]
compound = "COc1cccc(-c2nc(-c3ccc(NC(=O)c4ccccc4)cc3)[nH]c2-c2ccnc(Br)c2)c1"
assigned_label = "y"

[[record]]
compound = "Cc1ccc(/C=C(\\C#N)n2nc3cccc(F)c3n2)cc1"
assigned_label = "n"

[[record]]
compound = "O=c1c2cc(F)cc(Cl)c2sc2c(NCCCNCCO)nc3ccccc3c12"
assigned_label = "n"

[[record]]
compound = "O=C1COCCN1c1ccc(NCc2cn(C(=O)c3ccc(Cl)cc3)c3ccccc23)cc1"
assigned_label = "y"


Quick check: growth of COc1cc(Nc2cn[nH]c2-c2ccc(Cl)cc2)cc(OC)c1OC under 90%? y

Quick check: growth of COc1ccc(CNC(=O)[C@H](O)[C@@H](N)Cc2ccccc2)cc1 under 90%? n

Quick check: growth of COc1ccc(C(=O)COC(=O)[C@H](C[Se][Se]C[C@H](NC(=O)c2ccc(Br)cc2F)C(=O)OCC(=O)c2ccc(OC)cc2)NC(=O)c2ccc(Br)cc2F)cc1 under 90%? y

Quick check: growth of COC(=O)/C=C1\S/C(=N\Nc2ccc([N+](=O)[O-])cc2[N+](=O)[O-])N(C2CCCCC2)C1=O under 90%? y

Quick check: growth of CSc1ncccc1C(=O)OCC(=O)Nc1oc(C)c2c(C)n[nH]c(=O)c12 under 90%? n

----------
Tested on: SF-295 CNS
Test: NCI-60 one-dose screen, 48 h
Conditions: 10 µM unless noted
Method: Cells are grown in 96 well plates and exposed to the test compound for 48 hours. Compounds are tested at a single concentration, which is 10^-5 M for most compounds. The reported endpoint is percent growth (GI% or GIPRCNT), where numbers from 0 - 100% represent growth inhibition, and numbers from -100% - 0 represent cell death. For example, a value of 40 represents 60% growth inhibition. A value of 0 means no net growth occurred over the course of the experiment. […]
About 83,000 compounds went through this panel and 20% of them were active in at least one assay; those are over-represented in the sample as a whole. Activity calls are given as the source filed them. How the source made its calls: active means growth percent below 10; inactive means the rest.
Choose one outcome from this list and give only that: active, inactive

Would you please look over these solved cases?
[[record]]
molecule = "C=C1CC[C@@]2(C#N)[C@H]3[C@H](CC[C@@H]2C)[C@@H](C)C[C@@H](CC(C)(C)C#N)[C@H]13"
assigned_label = "inactive"

[[record]]
molecule = "COc1ccc(-c2conc2-c2ccccc2)cc1"
assigned_label = "inactive"

[[record]]
molecule = "CCOC(=O)c1nc(Nc2ccc(C(C)=O)cc2)sc1C"
assigned_label = "inactive"

[[record]]
molecule = "COc1ccc(C(=O)C(C)C)c2ccccc12"
assigned_label = "inactive"

[[record]]
molecule = "O=C(N/N=C/[C@H](O)[C@H](O)[C@H](O)CO)c1ccc(NC(=O)c2cccnc2)cc1"
assigned_label = "inactive"


Next item in the queue.
Check the results log: what was the call for Oc1c(I)cc(I)cc1CNCCCN(Cc1ccccn1)Cc1ccccn1 ? active

----------
Recorded growth, one value per entry.
Test system: MDA-MB-231 breast
Assay: NCI-60 one-dose screen, 48 h (100 = growth as untreated, 0 = no growth, -100 = all killed)
Conditions: 10 µM unless noted
Procedure: Cells are grown in 96 well plates and exposed to the test compound for 48 hours. Compounds are tested at a single concentration, which is 10^-5 M for most compounds. The reported endpoint is percent growth (GI% or GIPRCNT), where numbers from 0 - 100% represent growth inhibition, and numbers from -100% - 0 represent cell death. For example, a value of 40 represents 60% growth inhibition. A value of 0 means no net growth occurred over the course of the experiment. […]
Compounds without any hit were thinned out: in the full panel of roughly 83,000, 20% have a hit.
Numbers only; they are read as %.

[[record]]
compound = "COc1ccc(C2CC(c3ccc(Nc4ccnc5cc(Cl)ccc45)cc3)=NN2C=O)cc1 (centres undefined)"
result = 78.8

[[record]]
compound = "NC1=C(c2nn[nH]n2)C(c2ccccc2Cl)c2ccc3ccccc3c2O1 (centres undefined)"
result = 63.7

[[record]]
compound = "CC(=O)CC(c1ccccc1)c1c(C)[nH]c2ccccc12 (centres undefined)"
result = 103


Under MDA-MB-231 breast: report growth of CCOC(=O)Nc1ccc(-c2nc(-c3cccc(OC)c3)c(-c3ccnc(Br)c3)[nH]2)cc1 . 41.2

Under MDA-MB-231 breast: report growth of NCCCNc1nc2ccccc2c2c(=O)c3cc(F)cc(Cl)c3sc12 . 51.4

Under MDA-MB-231 breast: report growth of Cc1cc(=O)oc2cc(OC(=O)N3CCN(C)CC3)ccc12 . 104

Under MDA-MB-231 breast: report growth of CNCCCNc1nc2ccccc2c2c(=O)c3cc(F)ccc3sc12 . -53.7

Under MDA-MB-231 breast: report growth of C=C1C(=O)O[C@H]2[C@H]1CC/C(COC(=O)C(C)c1ccc(CC(C)C)cc1)=C\CC[C@@]1(C)O[C@@H]21 (some centres undefined) . -58

----------
Test system: PC-3 prostate
Assay: NCI-60 one-dose screen, 48 h
Conditions: 10 µM unless noted
About 83,000 compounds went through this panel and 20% of them were active in at least one assay; those are over-represented in the sample as a whole. The source made the active and inactive calls. Rule for the calls: active = growth percent below 10; inactive = the rest.
Choose one outcome from this list and give only that: Yes for active, No for inactive

[[record]]
compound = "CCOC(=O)c1c(C)nc2c(c1N)CC(=O)N2Cc1ccc(F)cc1"
assigned_label = "No"

[[record]]
compound = "COc1ccc(/C=N/Nc2cc(=O)[nH]c3ccc(C)cc23)cc1"
assigned_label = "No"

[[record]]
compound = "COc1ccc(-c2nc(NCCO)[nH]c(=O)c2C#N)cc1"
assigned_label = "No"

[[record]]
compound = "COc1cc2cc(Oc3ccc(NC(=O)Nc4ccc(Cl)c(Cl)c4)cc3)c(C)nc2cc1OCCN1CCOCC1"
assigned_label = "No"

[[record]]
compound = "COc1cc(C2CC(c3ccc(SC)cc3)=NN2C(C)=O)cc(OC)c1OC (stereo not given)"
assigned_label = "No"

[[record]]
compound = "CC1=C([Se]CC(OC(=O)[C@@H](CSSC(C)(C)C)NC(=O)OC(C)(C)C)C(=O)NC(C)(C)C)C(=O)c2ccccc2C1=O (stereo not given in full)"
assigned_label = "Yes"

[[record]]
compound = "CCOC(=O)CCN(C(=O)Nc1ccccc1)C1CCCCC1"
assigned_label = "No"

[[record]]
compound = "COc1ccc(/C=C(/C#N)n2nnc3cccc(F)c32)cc1"
assigned_label = "No"


Check the results log: what was the call for O=C(Nc1c2ccccc2nc2ccccc12)c1ccccc1CN1C(=O)c2ccccc2C1=O ? No

Check the results log: what was the call for CCN1C(=O)N(CC)C2Nn3c(s/c(=C4\C(=O)N(CC(C)C)c5ccccc54)c3=O)=NC21 (stereo not given) ? No

Check the results log: what was the call for Cc1ccc(-c2nc(N3CCN(C(=O)c4ccc(OC(F)(F)F)cc4)CC3)c3ccccc3n2)cc1 ? No
